Test system: Mycobacterium tuberculosis
Assay: Antitubercular activity against Mycobacterium tuberculosis H37Rv ATCC 27294 assessed as inhibition of bacterial growth cultured in Middlebrook 7H9/glucose/casitone/tyloxapol medium for 2 weeks
Format: functional
Conditions: H37Rv ATCC 27294, 336 h
For each record, check the reported MIC: if it is below 0.4 µM write label 1, else write label 0.

Previously resolved entries follow.
[
  {
    "compound": "CC(C)(C)C1CCN(C(=O)C2CCN(c3nnc(-c4ccccc4)o3)CC2)CC1",
    "label class": "label 0"
  },
  {
    "compound": "O=C(C1CCN(c2nnc(-c3ccccc3)o2)CC1)N1CCC(c2ccccc2)CC1",
    "label class": "label 0"
  },
  {
    "compound": "NNC(=O)c1ccncc1",
    "label class": "label 1"
  }
]

# TODO verify MIC < 0.4 µM strictly for this compound: O=C(C1CCN(c2nnc(-c3ccccc3)o2)CC1)N1CCC(Oc2ccccc2)CC1 label 0

# TODO verify MIC < 0.4 µM strictly for this compound: O=C(C1CCN(c2nnc(-c3ccccc3)o2)CC1)N1CCC(=Cc2ccccc2)CC1 label 1

# TODO verify MIC < 0.4 µM strictly for this compound: O=C(C1CCN(c2nnc(-c3ccccc3)o2)CC1)N1CCC(Cc2ccccc2)C1 (stereo unspecified) label 0

# TODO verify MIC < 0.4 µM strictly for this compound: O=C(C1CCN(c2nnc(-c3ccc(F)cc3)o2)CC1)N1CCC(Cc2ccccc2)CC1 label 1

# TODO verify MIC < 0.4 µM strictly for this compound: O=C(C1CCN(c2nnc(-c3ccccc3)s2)CC1)N1CCC(Cc2ccccc2)CC1 label 1

# TODO verify MIC < 0.4 µM strictly for this compound: O=C(CC1CCN(c2nnc(-c3ccccc3)o2)CC1)N1CCC(Cc2ccccc2)CC1 label 0

# TODO verify MIC < 0.4 µM strictly for this compound: O=C(NC1CCC(Cc2ccccc2)CC1)C1CCN(c2nnc(-c3ccccc3)o2)CC1 (stereo unspecified) label 0

====

A collection of compounds and their measured IC50 at 24 h
Experiment: Cytotoxicity against human HepG2 cells assessed as reduction in cell viability incubated for 24 hrs in DMEM/10% FBS supplemented with galactose by CellTiter-Glo luminescent assay
Assay type: toxicity, cell-based

[
  {
    "compound": "CN1CCN(C(=O)C2CCN(c3nnc(-c4ccccc4)o3)CC2)CC1",
    "IC50 at 24 h": "> 50 µM"
  },
  {
    "compound": "O=C(C1CCN(c2nnc(-c3ccc(F)cc3)o2)CC1)N1CCC(Cc2ccccc2)CC1",
    "IC50 at 24 h": "> 50 µM"
  },
  {
    "compound": "O=C(C1CCN(c2nnc(-c3ccccc3)o2)CC1)N1CCc2ccccc2C1",
    "IC50 at 24 h": "> 50 µM"
  },
  {
    "compound": "O=C(C1CCN(c2nnc(-c3ccccc3)o2)CC1)N1CCN(Cc2ccccc2)CC1",
    "IC50 at 24 h": "> 50 µM"
  },
  {
    "compound": "O=C(C1CCN(c2nnc(-c3ccccc3)o2)CC1)N1CCC(CC2CCCCC2)CC1",
    "IC50 at 24 h": "> 50 µM"
  },
  {
    "compound": "O=C(NC1CCC(Cc2ccccc2)CC1)C1CCN(c2nnc(-c3ccccc3)o2)CC1 (stereo not given)",
    "IC50 at 24 h": "> 50 µM"
  }
]

Let me know recorded IC50 at 24 h for O=C(C1CCN(c2nnc(-c3ccccc3)o2)CC1)N1CCCCC1 , thanks. > 50 µM

Let me know recorded IC50 at 24 h for O=C(C1CCN(c2nnc(-c3ccccc3)o2)C1)N1CCC(Cc2ccccc2)CC1 (stereo not given) , thanks. > 50 µM
